- test description: agonists of NOTCH signaling (AID 434982)
- experimental setup: NOTCH signaling luciferase reporter cells, luminescence; at 2.5 µM; stronger effect = higher value
The campaign covered roughly 15,000 compounds. About 60 (0.4%) were called active. Shown is part of a subset that was picked to be rich in actives.
activation by entry:

| molecule | activation (%) |
| --- | --- |
| Cc1ccc(S(=O)(=O)NNC(=O)CCc2nc(-c3ccc(Cl)cc3)no2)cc1 | 0.6 |
| CS(=O)(=O)c1csc(C(=O)NCc2cccnc2)c1Cl | -0.31 |
| CC(C)(C)NC(=O)NCC(c1ccc[nH]1)C(F)(F)F (centres undefined) | -0.29 |
| O=S(=O)(c1ccc(Cl)cc1)n1nccc1/C=C/c1cccs1 | 0.05 |
| Cc1nc(-c2ccccc2)sc1-c1nnc(C2CC2)o1 | -0.45 |
| O=C(Nc1ccccc1N1CCOCC1)NC1CCN(C(=O)OCc2ccccc2)CC1 | -0.87 |
| COC(=O)c1cc(OC)c(OC)cc1NC(=O)CSc1ccc(Cl)cc1 | -0.78 |
| N/C(Cc1cccs1)=N\OC(=O)c1ccccc1 | -0.76 |
| CSC(=CC(=O)c1cccs1)SC | -0.45 |
| COC(=O)c1sccc1S(=O)(=O)Nc1ccccc1Sc1ncnc2c(C)csc12 | -0.68 |
| Cn1cnc(S(=O)(=O)Nc2ccc3[nH]ccc3c2)c1 | -0.46 |
| CCCCc1c(O)cc(-c2ccccc2)n(Cc2ccccc2)c1=O | -0.19 |
| N#C/C(=C\c1cccn1S(=O)(=O)c1ccccc1)C(=O)c1ccccc1 | 0.09 |
| Cc1ccc(S(=O)(=O)NC(=O)NNc2ncnc3scc(-c4ccccc4)c23)cc1 | -0.88 |
| CC1(C)C2CC[C@](C)(C2)C1NC(=O)c1c(Cl)cccc1Cl (some centres undefined) | -0.41 |
| O=C(O)CC1(CC(=O)Nc2ccc(N3CCCCC3)cc2)CCCCC1 | -0.6 |
| O=c1[nH]c2ccccc2c(=O)n1CCSc1ccc(Cl)cc1 | -0.73 |
| CCOC(=O)c1ccc(NC)c(N)c1 | -0.75 |
| CC(C)(C)OC(=O)n1ccc2cc(Br)ccc21 | -0.83 |
| CS(=O)(=O)Nc1ccc(/C(N)=N/OC(=O)c2cccs2)cc1 | -0.39 |
| Clc1ccc(C2=NN(Cc3ccccc3)CC2)s1 | 0.29 |
| COc1ccc2cc(/C(C)=N/OC(=O)Nc3ccccc3)ccc2c1 | 0.13 |
| CS(=O)(=O)/N=C(\N)c1ccncc1 | -1.1 |
| Cc1cccc(Cl)c1NC(=S)NCCNC(=O)OC(C)(C)C | -0.1 |

meta.source: PubChem BioAssay AID434982
